- Test system: ABUTH (Velvetleaf)
- EXPERIMENT: Postemergence herbicidal evaluation
- Assay type: in vivo, Abutilon theophrasti
- CONDITION_DESCRIPTION: postemergence, rate 0.0625 kg/ha
Herbicidal rating ABUTH values for the compounds below.

Below: 5 compounds and their reported Herbicidal rating ABUTH.
CC(C)N1C(=O)CSC1=Nc1cc(-n2c(=O)cc(C(F)(F)F)n(C)c2=O)c(F)cc1Cl [Compound 164]
9.0
CCN1C(=O)CSC1=Nc1cc(-n2c(=O)cc(C(F)(F)F)n(C)c2=O)c(F)cc1Cl [Compound 159]
9.0
CCOC(=O)CN1C(=O)C(C(=O)OC)SC1=Nc1cc(-n2c(=O)cc(C(F)(F)F)n(C)c2=O)c(F)cc1Cl (stereo not drawn) [Compound 128]
9.0
CCOC(=O)CN1C(=O)C(C(=O)OC(C)(C)C)SC1=Nc1cc(-n2c(=O)cc(C(F)(F)F)n(C)c2=O)c(F)cc1Cl (stereo not drawn) [Compound 167]
9.0
Cn1c(C(F)(F)F)cc(=O)n(-c2cc(N=C3SCC(=O)N3C3CCCC3)c(Cl)cc2F)c1=O [Compound 166]
3.0

Ask | # input compound: Cc1ccccc1CN1C(=O)CSC1=Nc1cc(-n2c(=O)cc(C(F)(F)F)n(C)c2=O)c(F)cc1Cl [Compound 129] ; wanted: its Herbicidal rating ABUTH
Reply | 9.0

Ask | // query Herbicidal rating ABUTH value for entry Cn1c(C(F)(F)F)cc(=O)n(-c2cc(N=C3SCC(=O)N3Cc3ccc(C(F)(F)F)cc3)c(Cl)cc2F)c1=O [Compound 141]
Reply | 8.0

Ask | Dear colleague, I am looking for the recorded Herbicidal rating ABUTH of the following compound: Cn1c(C(F)(F)F)cc(=O)n(-c2cc(N=C3SCC(=O)N3Cc3cc(Cl)cc(Cl)c3)c(Cl)cc2F)c1=O [Compound 150]
Reply | 9.0

Ask | Herbicidal rating ABUTH lookup needed for Cn1c(C(F)(F)F)cc(=O)n(-c2cc(N=C3SCC(=O)N3C3CCC3)c(Cl)cc2F)c1=O [Compound 168] , thanks.
Reply | 9.0

###

- System: GALAP (Galium)
- EXPERIMENT: Postemergence herbicidal evaluation
- Assay type: in vivo, Galium aparine
- CONDITION_DESCRIPTION: postemergence, rate 0.0625 kg/ha
QUANTITY: Herbicidal rating GALAP
Give only the figure.

Take a look at these entries with their results.
C=CCN1C(=O)C(CC(=O)NS(=O)(=O)CC)SC1=Nc1cc(-n2c(=O)cc(C(F)(F)F)n(C)c2=O)c(F)cc1Cl (stereo not drawn)
1.0
Cn1c(C(F)(F)F)cc(=O)n(-c2cc(N=C3SCC(=O)N3Cc3ccncc3)c(Cl)cc2F)c1=O
3.0
Cn1c(C(F)(F)F)cc(=O)n(-c2cc(N=C3SCC(=O)N3Cc3ccc(C(F)(F)F)cc3)c(Cl)cc2F)c1=O
2.0

Ask | GET /values?readout=Herbicidal rating GALAP&item= `Cn1c(C(F)(F)F)cc(=O)n(-c2cc(N=C3SCC(=O)N3Cc3ccc(Cl)c(Cl)c3)c(Cl)cc2F)c1=O`
Reply | 4.0

Ask | Could you share which Herbicidal rating GALAP value was measured for CC(C)S(=O)(=O)NC(=O)CC1SC(=Nc2cc(-n3c(=O)cc(C(F)(F)F)n(C)c3=O)c(F)cc2Cl)N(C)C1=O (stereo not drawn) ?
Reply | 3.0

Ask | Any idea what Herbicidal rating GALAP was measured for `CN(C)c1ccc(CN2C(=O)CSC2=Nc2cc(-n3c(=O)cc(C(F)(F)F)n(C)c3=O)c(F)cc2Cl)cc1` ?
Reply | 2.0

Ask | Name the reported Herbicidal rating GALAP value associated with the compound CCOC(=O)CN1C(=O)C(CC(=O)O)SC1=Nc1cc(N2C(=O)CC(C(F)(F)F)CC2=O)c(F)cc1Cl (stereo not drawn)
Reply | 4.0

Ask | Requested field: Herbicidal rating GALAP. Item: `Cn1c(C(F)(F)F)cc(=O)n(-c2cc(N=C3SCC(=O)N3Cc3ccccn3)c(Cl)cc2F)c1=O`
Reply | 3.0

Ask | Given `Cn1c(C(F)(F)F)cc(=O)n(-c2cc(N=C3SCC(=O)N3Cc3cccnc3)c(Cl)cc2F)c1=O` , state its recorded Herbicidal rating GALAP.
Reply | 3.0

###

Measured Preemergence herbicidal rating SETVI by item
- Tested on: SETVI (Foxtail, Green)
- EXPERIMENT: Preemergence herbicidal evaluation
- Type: in vivo, Setaria viridis
- CONDITION_DESCRIPTION: rate 0.2500 kg/ha; rated 4-5 weeks after treatment; rating scale 0-9
In your answer, state the number alone without any accompanying words.

See these solved cases before continuing.
Cc1ccc(CN2C(=O)CSC2=Nc2cc(-n3c(=O)cc(C(F)(F)F)n(C)c3=O)c(F)cc2Cl)cc1Cl
0.0
Cn1c(C(F)(F)F)cc(=O)n(-c2cc(N=C3SCC(=O)N3Cc3cccc(Cl)c3)c(Cl)cc2F)c1=O
7.0

Ask | Requested read-out: Preemergence herbicidal rating SETVI. Entry: `Cn1c(C(F)(F)F)cc(=O)n(-c2cc(N=C3SCC(=O)N3Cc3ccc(C(F)(F)F)cc3)c(Cl)cc2F)c1=O`
Reply | 4.0

Ask | Which value of Preemergence herbicidal rating SETVI has been reported for `Cn1c(C(F)(F)F)cc(=O)n(-c2cc(N=C3SCC(=O)N3Cc3cc(Cl)cc(Cl)c3)c(Cl)cc2F)c1=O` in the records?
Reply | 9.0

Ask | Entry `Cn1c(C(F)(F)F)cc(=O)n(-c2cc(N=C3SCC(=O)N3Cc3ccc(Cl)c(Cl)c3)c(Cl)cc2F)c1=O` has what Preemergence herbicidal rating SETVI?
Reply | 9.0

Ask | Look up Preemergence herbicidal rating SETVI: `C=C1SC(=Nc2cc(-n3c(=O)cc(C(F)(F)F)n(C)c3=O)c(F)cc2Cl)N(CC(=O)OCC)C1=O`
Reply | 9.0

Ask | Any idea what its Preemergence herbicidal rating SETVI is? The molecule is `COc1cc(CN2C(=O)CSC2=Nc2cc(-n3c(=O)cc(C(F)(F)F)n(C)c3=O)c(F)cc2Cl)cc(OC)c1OC`
Reply | 0.0

Ask | GET /values?readout=Preemergence herbicidal rating SETVI&item= CCOC(=O)CN1C(=O)C(Br)SC1=Nc1cc(-n2c(=O)cc(C(F)(F)F)n(C)c2=O)c(F)cc1Cl (stereo not drawn)
Reply | 0.0

Ask | Look up Preemergence herbicidal rating SETVI: `Cc1cc(C)cc(CN2C(=O)CSC2=Nc2cc(-n3c(=O)cc(C(F)(F)F)n(C)c3=O)c(F)cc2Cl)c1`
Reply | 5.0

###

Measured GALAP herbicidal rating accompanies every entry in the list below.
- Tested on: GALAP (Galium)
- EXPERIMENT: Postemergence herbicidal evaluation
- Type: in vivo, Galium aparine
- CONDITION_DESCRIPTION: postemergence, rate 0.0630 kg/ha
- Protocol: In the tests, seedling plants are grown in jiffy flats for about two weeks. The test compounds are dispersed in 50/50 acetone/water mixtures containing 0.5% TWEEN®20, a polyoxyethylene sorbitan monolaurate surfactant of Atlas Chemical Industries, in sufficient quantities to provide the equivalent of about 0.0156 kg to 0.500 kg per hectare of active compound when applied to the plants through a spray nozzle operating at 40 psi for a predetermined time. […]
Format: numeric value only, no unit, no commentary.

C[C@@H](C(=O)OC(C)(C)C)N1C(=O)CSC1=Nc1cc(-n2c(=O)cc(C(F)(F)F)n(C)c2=O)c(F)cc1Cl
5.0

Ask | // returns reported GALAP herbicidal rating for input C#CCOC(=O)CC1SC(=Nc2cc(-n3c(=O)cc(C(F)(F)F)n(C)c3=O)c(F)cc2Cl)N(CC=C)C1=O (stereo not drawn)
Reply | 5.0

Ask | Dear colleague, I am looking for the recorded GALAP herbicidal rating of the following molecule: CCOC(=O)CN1C(=O)C(Cc2ccccc2)SC1=Nc1cc(-n2c(=O)cc(C(F)(F)F)n(C)c2=O)c(F)cc1Cl (stereo not drawn)
Reply | 6.0

###

- System: CASOB (Sicklepod)
- EXPERIMENT: Preemergence herbicidal evaluation
- Type: in vivo, Cassia obtusifolia
- CONDITION_DESCRIPTION: rate 0.1250 kg/ha; rated 4-5 weeks after treatment; rating scale 0-9
QUANTITY: Preemergence herbicidal rating CASOB
Number only, please.

Below are worked cases with known answers.
COc1cc(CN2C(=O)CSC2=Nc2cc(-n3c(=O)cc(C(F)(F)F)n(C)c3=O)c(F)cc2Cl)cc(OC)c1OC
0.0
Cc1ccc(CN2C(=O)CSC2=Nc2cc(-n3c(=O)cc(C(F)(F)F)n(C)c3=O)c(F)cc2Cl)cc1Cl
0.0
Cn1c(C(F)(F)F)cc(=O)n(-c2cc(N=C3SCC(=O)N3Cc3ccc(Cl)c(Cl)c3)c(Cl)cc2F)c1=O
1.0
Cn1c(C(F)(F)F)cc(=O)n(-c2cc(N=C3SCC(=O)N3Cc3ccc(C(F)(F)F)cc3)c(Cl)cc2F)c1=O
0.0

Ask | GET /values?readout=Preemergence herbicidal rating CASOB&item= `CN(C)c1ccc(CN2C(=O)CSC2=Nc2cc(-n3c(=O)cc(C(F)(F)F)n(C)c3=O)c(F)cc2Cl)cc1`
Reply | 0.0
